For each of the molecules below, state its pIC50.
TESTED_TARGET: RAF proto-oncogene serine/threonine-protein kinase (Homo sapiens)
Sequence (P04049 whole entry): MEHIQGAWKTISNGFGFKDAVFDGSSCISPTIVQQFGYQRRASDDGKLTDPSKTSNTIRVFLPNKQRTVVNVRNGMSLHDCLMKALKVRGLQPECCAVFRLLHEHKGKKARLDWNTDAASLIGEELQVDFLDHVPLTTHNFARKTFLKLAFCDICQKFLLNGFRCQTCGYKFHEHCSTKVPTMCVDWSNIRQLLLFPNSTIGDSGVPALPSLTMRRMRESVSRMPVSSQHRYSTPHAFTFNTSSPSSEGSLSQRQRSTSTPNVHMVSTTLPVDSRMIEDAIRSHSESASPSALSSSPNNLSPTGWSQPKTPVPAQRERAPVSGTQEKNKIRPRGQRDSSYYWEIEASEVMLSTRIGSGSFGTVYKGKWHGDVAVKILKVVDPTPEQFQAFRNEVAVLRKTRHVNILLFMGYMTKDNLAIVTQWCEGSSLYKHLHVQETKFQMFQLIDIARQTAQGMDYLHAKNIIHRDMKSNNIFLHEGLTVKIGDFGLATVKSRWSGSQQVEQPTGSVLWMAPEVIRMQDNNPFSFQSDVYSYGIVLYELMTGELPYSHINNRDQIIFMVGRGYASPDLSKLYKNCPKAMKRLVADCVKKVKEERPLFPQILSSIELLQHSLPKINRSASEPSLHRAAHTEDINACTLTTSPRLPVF
TEST_PROTOCOL: Inhibition of RAF in human WM3629 cells assessed as ERK phosphorylation at Thr202/Tyr204 residue incubated for 6 hrs by HTRF assay
Type: cell-based
Give bare numbers, as −log10 of the molar value.

* Cc1ncc(NC(=O)N2CC[C@@H](CC(F)(F)F)C2)cc1-c1cnc(OCCN2CCN(c3ccc4c(c3)C(=O)N(C3CCC(=O)NC3=O)C4=O)CC2)c(N2CCOCC2)c1 (some centres not stated) | 8.00

With those in mind, consider the next molecule.
Query: Given Cc1ccc(NC(=O)N2CC[C@@H](CC(F)(F)F)C2)cc1-c1cnc(OCCN2CCN(c3ccc4c(c3)C(=O)N(C3CCC(=O)NC3=O)C4=O)CC2)c(N2CCOCC2)c1 (some centres not stated) , state its recorded pIC50.
Response: 8.00
